B1: CPEB3 Ribozyme (parent)
chain: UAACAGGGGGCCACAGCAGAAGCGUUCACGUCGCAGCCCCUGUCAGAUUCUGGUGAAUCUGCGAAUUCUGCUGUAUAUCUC

# Variants of: B1
# assayOverview: self-cleavage, relative activity (ratio to wild type); higher = more cleavage; in vitro, sequencing
quantityKind: self-cleavage

{"variant": "U25A U72A", "observedMeasurement": 0.3}
{"variant": "U51G A77G", "observedMeasurement": 1.1}
{"variant": "G9U A47G", "observedMeasurement": 0.29}
{"variant": "C40U U60A", "observedMeasurement": 0.34}
{"variant": "G22U U60C", "observedMeasurement": 0.07}
{"variant": "C4U C27U", "observedMeasurement": 0.56}
{"variant": "A56C U72A", "observedMeasurement": 0.18}
{"variant": "A18G U26A", "observedMeasurement": 0.48}
{"variant": "A2G G8A", "observedMeasurement": 0.3}
{"variant": "A13U C44A", "observedMeasurement": 0.29}
{"variant": "G53A A57G", "observedMeasurement": 0.97}
{"variant": "C17U A21C", "observedMeasurement": 0.12}
{"variant": "C11G A35G", "observedMeasurement": 0.56}
{"variant": "C37A C68U", "observedMeasurement": 0.09}
